Target: Neuropeptide Y receptor type 5 (Rattus norvegicus, UniProt Q63634)
Experiment: Inhibition of [125I]PYY binding to the rat NPY Y5 receptor in C6 cells
pIC50: −log10 of the molar value.
observable: pIC50

For Neuropeptide Y receptor type 5 (Rattus norvegicus, UniProt Q63634), give pIC50 of the listed compound: O=C(CN1CCC(N2C(=O)OCc3ccccc32)CC1)Nc1ccccc1 < 6.00

// fetch pIC50; item: Cc1cccc2c1N(C1CCN(CC(=O)Nc3ccccc3C(=O)c3ccccc3)CC1)C(=O)OC2 ; system: Neuropeptide Y receptor type 5 (Rattus norvegicus, UniProt Q63634) < 6.00

Quote pIC50 with test system Neuropeptide Y receptor type 5 (Rattus norvegicus, UniProt Q63634) for O=C(CN1CCC(N2C(=O)OCc3ccccc32)CC1)Nc1ccc2c(c1)C(=O)c1ccccc1-2 < 6.00

---

Target: Neuropeptide Y receptor type 5 (Rattus norvegicus)
Sequence (Q63634 whole entry): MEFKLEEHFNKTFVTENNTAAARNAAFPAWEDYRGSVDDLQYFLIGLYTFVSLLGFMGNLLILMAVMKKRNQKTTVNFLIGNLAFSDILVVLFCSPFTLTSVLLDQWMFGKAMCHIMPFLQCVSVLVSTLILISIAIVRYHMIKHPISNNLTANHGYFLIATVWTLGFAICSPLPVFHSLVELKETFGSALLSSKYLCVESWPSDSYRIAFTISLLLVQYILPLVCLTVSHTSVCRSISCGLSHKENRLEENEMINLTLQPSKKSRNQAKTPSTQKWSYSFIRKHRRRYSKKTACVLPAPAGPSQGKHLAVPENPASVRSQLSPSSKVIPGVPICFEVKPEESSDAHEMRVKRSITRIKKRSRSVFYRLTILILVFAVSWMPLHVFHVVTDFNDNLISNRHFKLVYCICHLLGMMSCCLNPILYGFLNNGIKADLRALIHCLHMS
Assay: Inhibition of [125I]PYY binding to the rat NPY Y5 receptor in C6 cells
observable: pIC50
Just the number, please; pIC50 means minus log10 of the concentration in mol/L.

Give the reported pIC50 for this molecule. O=C(CN1CCC(N2C(=O)OCc3ccccc32)CC1)Nc1cccc2c1-c1ccccc1C2=O 6.86

Let me know recorded pIC50 for O=C(CN1CCC(N2C(=O)OCc3cc(Cl)ccc32)CC1)Nc1ccc2ncccc2c1 , thanks. 6.83

Write down pIC50 measured for item Cc1ccc2c(c1)COC(=O)N2C1CCN(CC(=O)Nc2ccc3c(c2)C(=O)c2ccccc2-3)CC1 7.06

Where do the numbers come from? From ChEMBL document CHEMBL1145203.
